Tested on: sedge, umbrella (small-flower umbrella sedge, Cyperus difformis)
test_name: Test B flooded paddy test, umbrella sedge
Type: in vivo
reported_conditions: 250 g ai/ha, Flood; visual rating after 13 to 15 days; scale 0 to 100, 0 is no effect, 100 is complete control
Would you please tag the item label 1 when its Plant response rating, Sedge, Umbrella is 30 or above, and label 0 when it is below?

| compound | system | assigned_category |
| --- | --- | --- |
| FC(F)(F)/C=C/COc1c(I)cccc1Oc1ncc(Cl)cn1 [Compound 61] | sedge, umbrella (small-flower umbrella sedge, Cyperus difformis) | label 1 |
| N#CCCCOc1c(F)cccc1Oc1ncc(Cl)cn1 [Compound 24] | sedge, umbrella (small-flower umbrella sedge, Cyperus difformis) | label 0 |
| FC(F)(F)CCOc1c(I)cccc1Oc1ncc(Cl)cn1 [Compound 69] | sedge, umbrella (small-flower umbrella sedge, Cyperus difformis) | label 1 |
| N#Cc1cccc(Oc2ncc(Cl)cn2)c1OCC(=O)C(F)(F)C(F)(F)F [Compound 74] | sedge, umbrella (small-flower umbrella sedge, Cyperus difformis) | label 0 |
| FCCCOc1c(I)cccc1Oc1ncc(Cl)cn1 [Compound 66] | sedge, umbrella (small-flower umbrella sedge, Cyperus difformis) | label 1 |
| CC(C)CCOc1c(Br)cccc1Oc1ncc(Cl)cn1 [Compound 12] | sedge, umbrella (small-flower umbrella sedge, Cyperus difformis) | label 0 |
| CC(COc1c(C#N)cccc1Oc1ncc(Cl)cn1)CC(F)(F)F (stereo not shown) [Compound 34] | sedge, umbrella (small-flower umbrella sedge, Cyperus difformis) | label 1 |
| FC(F)(F)C(F)(F)CCCOc1c(Br)cccc1Oc1ncc(Cl)cn1 [Compound 49] | sedge, umbrella (small-flower umbrella sedge, Cyperus difformis) | label 0 |
| Fc1cccc(Oc2ncc(Cl)cn2)c1OC/C=C/Cl [Compound 9] | sedge, umbrella (small-flower umbrella sedge, Cyperus difformis) | label 1 |

* * *

System: ragweed (common ragweed, Ambrosia elatior)
test_name: Test A preemergence, ragweed
Assay type: in vivo
reported_conditions: Ambrosia artemisiifolia, pre-emergence, 240 h; Preemergence, 125 g ai/ha; 0 to 100 scale (0 no effect, 100 complete control); read-out: Plant response rating, Ragweed
The following compounds are shown together with reported pest or weed control at 125 g/ha values.

| molecule | pest or weed control at 125 g/ha / % |
| --- | --- |
| CCCCOc1c(C#N)cccc1Oc1ncc(Cl)cn1 | 10 |
| CCCCOc1c(Br)cccc1Oc1ncc(Cl)cn1 | 0 |
| Fc1cccc(Oc2ncc(Cl)cn2)c1OCC(F)(F)F | 0 |
| N#Cc1cccc(Oc2ncc(Cl)cn2)c1OCC(F)(F)C(F)(F)F | 20 |
| FC(F)C(F)(F)COc1c(Br)cccc1Oc1ncc(Cl)cn1 | 0 |
| FC(F)(F)COc1c(I)cccc1Oc1ncc(Cl)cn1 | 0 |
| N#Cc1cccc(Oc2ncc(Cl)cn2)c1OC/C=C/C(F)(F)F | 0 |
| N#Cc1cccc(Oc2ncc(F)cn2)c1OCC(F)(F)F | 20 |
| N#Cc1cccc(Oc2ncc(Cl)cn2)c1OCC(F)(F)F | 100 |
| Cc1cccc(Oc2ncc(Cl)cn2)c1OCC(F)(F)F | 0 |

* * *

Recorded Plant response rating, Blackgrass by entry
System: blackgrass (Alopecurus myosuroides)
test_name: Test A postemergence, blackgrass
Type: in vivo
reported_conditions: 125 g ai/ha, postemergence; 0 to 100 scale, 0 is no effect, 100 is complete control; approximately 10 days
test_readout: Plant response rating, Blackgrass

| molecule | test_readout | val |
| --- | --- | --- |
| N#Cc1cccc(Oc2ncc(F)cn2)c1OC/C=C/C(F)(F)F | Plant response rating, Blackgrass | 60 |
| FC(F)(F)CCCOc1c(Oc2ncc(Cl)cn2)cccc1C(F)(F)F | Plant response rating, Blackgrass | 10 |
| CC(COc1c(C#N)cccc1Oc1ncc(Cl)cn1)CC(F)(F)F (stereo not drawn) | Plant response rating, Blackgrass | 20 |
| Cc1cccc(Oc2ncc(Cl)cn2)c1OCCCC#N | Plant response rating, Blackgrass | 0 |
| N#Cc1cccc(Oc2ncc(Cl)cn2)c1OCC(F)F | Plant response rating, Blackgrass | 10 |
| FC(F)C(F)(F)C(F)(F)C(F)(F)COc1c(Br)cccc1Oc1ncc(Cl)cn1 | Plant response rating, Blackgrass | 30 |
| FC(F)(F)/C=C/COc1c(Cl)cccc1Oc1ncc(Cl)cn1 | Plant response rating, Blackgrass | 50 |
| FC(F)(F)CCCOc1c(Cl)cccc1Oc1ncc(Cl)cn1 | Plant response rating, Blackgrass | 40 |
| Cl/C=C/COc1c(Cl)cccc1Oc1ncc(Cl)cn1 | Plant response rating, Blackgrass | 10 |

* * *

Tested on: blackgrass (Alopecurus myosuroides)
test_name: Test A postemergence, blackgrass
Type: in vivo
reported_conditions: 125 g ai/ha, postemergence; 0 to 100 scale, 0 is no effect, 100 is complete control; approximately 10 days

| compound | system | Plant response rating, Blackgrass |
| --- | --- | --- |
| O=C(CCC(F)(F)F)COc1c(Br)cccc1Oc1ncc(Cl)cn1 [Compound 56] | blackgrass (Alopecurus myosuroides) | 20 |
| FC(F)=C(F)CCOc1c(Br)cccc1Oc1ncc(Cl)cn1 [Compound 38] | blackgrass (Alopecurus myosuroides) | 10 |
| N#Cc1cccc(Oc2ncc(Cl)cn2)c1OCc1ccccc1Cl [Compound 2] | blackgrass (Alopecurus myosuroides) | 0 |
| Cc1cccc(Oc2ncc(Cl)cn2)c1OCCC(F)(F)F [Compound 64] | blackgrass (Alopecurus myosuroides) | 10 |
| N#Cc1cccc(Oc2ncc(Cl)cn2)c1OCc1ccc(C(F)(F)F)cc1 [Compound 20] | blackgrass (Alopecurus myosuroides) | 0 |
| FC(F)(F)CCOc1c(I)cccc1Oc1ncc(Cl)cn1 [Compound 69] | blackgrass (Alopecurus myosuroides) | 80 |
| N#Cc1cccc(Oc2ncc(F)cn2)c1OC/C=C/Cl [Compound 36] | blackgrass (Alopecurus myosuroides) | 50 |
| CCCCCOc1c(C#N)cccc1Oc1ncc(Cl)cn1 [Compound 51] | blackgrass (Alopecurus myosuroides) | 20 |
| Cc1cccc(Oc2ncc(Cl)cn2)c1OC/C=C/Cl [Compound 59] | blackgrass (Alopecurus myosuroides) | 50 |
| N#Cc1cccc(Oc2ncc(Cl)cn2)c1OCCCCC(F)(F)F [Compound 32] | blackgrass (Alopecurus myosuroides) | 50 |

* * *

Overview of recorded Plant response rating, Blackgrass for various molecules
Test system: blackgrass (Alopecurus myosuroides)
test_name: Test A postemergence, blackgrass
Format: in vivo
reported_conditions: 125 g ai/ha, postemergence; 0 to 100 scale, 0 is no effect, 100 is complete control; approximately 10 days

| molecule | system | Plant response rating, Blackgrass |
| --- | --- | --- |
| Cc1cccc(Oc2ncc(Cl)cn2)c1OCCCF | blackgrass (Alopecurus myosuroides) | 0 |
| N#Cc1cccc(Oc2ncc(Cl)cn2)c1OCC(F)(F)C(F)F | blackgrass (Alopecurus myosuroides) | 60 |
| FCCCOc1c(Cl)cccc1Oc1ncc(Cl)cn1 | blackgrass (Alopecurus myosuroides) | 10 |
| CC(C)CCCOc1c(Br)cccc1Oc1ncc(Cl)cn1 | blackgrass (Alopecurus myosuroides) | 0 |
| Cc1cccc(Oc2ncc(Cl)cn2)c1OC/C=C/C(F)(F)F | blackgrass (Alopecurus myosuroides) | 30 |
| FCCCOc1c(I)cccc1Oc1ncc(Cl)cn1 | blackgrass (Alopecurus myosuroides) | 30 |
| N#Cc1cccc(Oc2ncc(Cl)cn2)c1OCC(=O)C(F)(F)C(F)(F)F | blackgrass (Alopecurus myosuroides) | 0 |
| N#Cc1cccc(Oc2ncc(Cl)cn2)c1OCc1cccc(Cl)c1 | blackgrass (Alopecurus myosuroides) | 0 |
| Fc1cccc(Oc2ncc(Cl)cn2)c1OCCC(F)(F)F | blackgrass (Alopecurus myosuroides) | 0 |
| FC(F)(F)CCCCOc1c(Br)cccc1Oc1ncc(Cl)cn1 | blackgrass (Alopecurus myosuroides) | 40 |
| N#Cc1cccc(Oc2ncc(Cl)cn2)c1OCCCF | blackgrass (Alopecurus myosuroides) | 10 |
| N#CCCCOc1c(C#N)cccc1Oc1ncc(Cl)cn1 | blackgrass (Alopecurus myosuroides) | 0 |

* * *

System: kochia (Kochia scoparia)
test_name: Test A postemergence, kochia
Assay type: in vivo
reported_conditions: 125 g ai/ha, postemergence; 0 to 100 scale, 0 is no effect, 100 is complete control; approximately 10 days

| compound | Plant response rating, Kochia |
| --- | --- |
| FC(F)C(F)(F)C(F)(F)C(F)(F)COc1c(Br)cccc1Oc1ncc(Cl)cn1 [Compound 53] | 100 |
| FC(F)(F)CCCOc1c(Br)cccc1Oc1ncc(Cl)cn1 [Compound 31] | 100 |
| N#Cc1cccc(Oc2ncc(Cl)cn2)c1OCc1cccc(Cl)c1 [Compound 21] | 40 |
| FC(F)(F)CCOc1c(Cl)cccc1Oc1ncc(Cl)cn1 [Compound 43] | 80 |
| Cc1cccc(Oc2ncc(Cl)cn2)c1OCCC(F)(F)F [Compound 64] | 20 |
| N#Cc1cccc(Oc2ncc(Cl)cn2)c1OCc1ccc(Cl)cc1 [Compound 3] | 70 |
| N#CCCCOc1c(C#N)cccc1Oc1ncc(F)cn1 [Compound 37] | 80 |
| FC(F)(F)/C=C/COc1c(Cl)cccc1Oc1ncc(Cl)cn1 [Compound 47] | 90 |
| CC(C)CCCOc1c(Br)cccc1Oc1ncc(Cl)cn1 [Compound 11] | 20 |
| FCCCOc1c(Cl)cccc1Oc1ncc(Cl)cn1 [Compound 44] | 70 |
